Provide the reported pIC50 of each item.
Target: CXCR7 (Homo sapiens)
Assay: CXCR7 β-arrestin recruitment assay in CHO-CXCR7 cells (ProLink/EA β-galactosidase complementation), induced by human SDF-1a
Settings: assay buffer, SDF-1a at EC50 concentration
pIC50: −log10 of the molar value.

Fill in the blank: the reported pIC50 of "CC(C)(NC(=O)CC1(NC(=O)c2cc(-c3ccc(F)cc3F)on2)CN([C@H]2CC[C@](C)(O)CC2)C1)c1cc(F)cc(F)c1" is ____. > 8.30

Return reported pIC50; argument: Cc1cc(C#N)cc(C(C)(C)NC(=O)CC2(NC(=O)c3nnc(-c4ccc(F)cc4F)s3)CN([C@H]3CC[C@](C)(O)CC3)C2)n1 [Example 1.352] 7.00 to 8.30

// returns reported pIC50 for input "CC(C)(NC(=O)CC1(NC(=O)c2cc(-c3ccc(F)cc3F)on2)CN([C@H]2CC[C@@](C)(O)CC2)C1)c1cc(F)cc(Cl)c1" > 8.30

Param item = "CC(C)(NC(=O)CC1(NC(=O)c2cc(-c3ccc(F)cc3F)on2)CN([C@H]2CC[C@](C)(O)CC2)C1)c1cc(F)cc(Cl)c1" ; retrieve measured pIC50. > 8.30

So what does the record say about pIC50 for CCC(C)CN1CC(CC(=O)NC(C)(C)c2ccccn2)(NC(=O)c2cc(-c3ccc(F)cc3F)on2)C1 (stereo not shown) ? > 8.30

Quick one: pIC50 for "CC(C)(NC(=O)CC1(NC(=O)c2cc(-c3ccc(F)cc3F)on2)CN(C2CCOCC2)C1)c1cccc(Cl)c1" ? 7.00 to 8.30

So what's the measured pIC50 for this one? CC(N1CC(CC(=O)NC(C)(C)c2ccccn2)(NC(=O)c2cc(-c3ccc(F)cc3F)on2)C1)C(F)(F)F (stereo not shown) 4.70 to 6.00

What pIC50 value was documented for this compound, "O=C(CC1(NC(=O)c2cc(-c3ccc(F)cc3F)on2)CN(C2CCCCC2)C1)NC1(c2ncccn2)CC1" ? 7.00 to 8.30

Item under review: "C[C@]1(O)CC[C@@H](N2CC(CC(=O)NCc3c[nH]c4ccccc34)(NC(=O)c3cc(-c4ccc(F)cc4F)on3)C2)CC1" . Reported pIC50? 4.70 to 6.00

Which measured pIC50 value corresponds to "CC(C)(NC(=O)CC1(NC(=O)c2cn(-c3ccc(F)cc3F)nn2)CN([C@H]2CC[C@](C)(O)CC2)C1)c1ccccc1" ? 7.00 to 8.30

Any idea what its pIC50 is? The compound is "COc1ccc(F)cc1C(C)(C)NC(=O)CC1(NC(=O)c2nnc(-c3ccc(F)cc3F)s2)CN([C@H]2CC[C@](C)(O)CC2)C1" 7.00 to 8.30

I would be grateful if you could share the reported pIC50 for COC1CCC(N2CC(CC(=O)NC(C)(C)c3ccccn3)(NC(=O)c3cc(-c4ccc(F)cc4F)on3)C2)CC1 (stereo not shown) . 7.00 to 8.30

Fill blank: measured pIC50 of the compound "CC(C)(NC(=O)CC1(NC(=O)c2cc(-c3ccc(F)cc3F)on2)CN(C2CCCCC2)C1)c1ccnc2[nH]ccc12" is ____. > 8.30

For "CC(C)(NC(=O)CC1(NC(=O)c2cc(-c3ccc(F)cc3F)on2)CN(C2CCC(F)(F)CC2)C1)c1ccccn1" , what is its reported pIC50? 7.00 to 8.30

Please report the recorded pIC50 for "Cc1cc(C(C)(C)NC(=O)CC2(NC(=O)c3cc(-c4ccc(F)cc4F)on3)CN(CC3COC3)C2)ccn1" . 6.00 to 7.00

Form field: reported pIC50 of "Cc1cc(C)nc(C(C)(C)NC(=O)CC2(NC(=O)c3cc(-c4ccc(F)cc4F)n[nH]3)CN([C@H]3CC[C@@](C)(O)CC3)C2)n1" 4.70 to 6.00

Name the recorded pIC50 for "CC(C)(NC(=O)CC1(NC(=O)c2cc(-c3ccc(F)cc3F)on2)CN(C2CCC3(CC2)COC3)C1)c1ccccn1" . > 8.30

May I ask what pIC50 has been recorded for "Cc1cc(C)nc(C(C)(C)NC(=O)CC2(NC(=O)c3nnc(-c4ccc(F)cc4F)s3)CN([C@H]3CC[C@](C)(O)CC3)C2)n1" ? > 8.30

Using the record for "CC(C)(NC(=O)CC1(NC(=O)c2cn(-c3ccc(F)cc3F)nn2)CN([C@H]2CC[C@](C)(O)CC2)C1)c1cccc(Cl)c1" , report its pIC50. 7.00 to 8.30

Quick one: pIC50 of "Cc1cccc(C(C)(C)NC(=O)CC2(NC(=O)c3cc(-c4ccc(F)cc4F)on3)CN([C@H]3CC[C@@](C)(O)CC3)C2)n1" ? > 8.30

Please look up its pIC50: "Cc1ccccc1C(C)(C)NC(=O)CC1(NC(=O)c2cc(-c3ccc(F)cc3F)on2)CN([C@H]2CC[C@](C)(O)CC2)C1" > 8.30

What does the data say about its pIC50? Entry: "C[C@@H](NC(=O)CC1(NC(=O)c2cc(-c3ccc(F)cc3F)on2)CN(CC2CC2)C1)c1ccccn1" 6.00 to 7.00

State the recorded pIC50 for this entry: "CC(C)CN1CC(CC(=O)NC(C)(C)c2cccc(Cl)c2)(NC(=O)c2nnc(-c3ccc(F)cc3F)s2)C1" 7.00 to 8.30

Quick one: pIC50 of "Cc1cc(C(C)(C)NC(=O)CC2(NC(=O)c3cc(-c4ccc(F)cc4F)on3)CN([C@H]3CC[C@](C)(O)CC3)C2)cc(C)n1" ? 7.00 to 8.30

Quick check: pIC50 of "CC(C)(NC(=O)CC1(NC(=O)c2nnc(-c3ccc(F)cc3F)s2)CN([C@H]2CC[C@](C)(O)CC2)C1)c1cc(Cl)cc(Cl)c1" ? > 8.30

====

Exercise: state measured IC50 for each of the molecules provided.
Target: CXCR7 (Homo sapiens, UniProt P25106)
Sequence (P25106 whole entry): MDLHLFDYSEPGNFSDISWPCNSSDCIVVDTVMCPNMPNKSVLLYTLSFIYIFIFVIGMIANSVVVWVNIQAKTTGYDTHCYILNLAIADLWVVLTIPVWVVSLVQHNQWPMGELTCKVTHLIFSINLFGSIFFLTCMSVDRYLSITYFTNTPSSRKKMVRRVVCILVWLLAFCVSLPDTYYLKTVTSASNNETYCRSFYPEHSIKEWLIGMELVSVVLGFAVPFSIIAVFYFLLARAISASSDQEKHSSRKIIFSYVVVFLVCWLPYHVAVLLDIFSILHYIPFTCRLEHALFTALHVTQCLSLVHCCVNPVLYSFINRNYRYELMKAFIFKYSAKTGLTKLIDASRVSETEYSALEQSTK
Test: CXCR7 β-arrestin recruitment assay in CHO-CXCR7 cells (ProLink/EA β-galactosidase complementation), induced by human SDF-1a
Details: assay buffer, SDF-1a at EC50 concentration

Look up IC50 for this molecule: "O=C(CC1(NC(=O)c2cc(-c3ccc(F)cc3F)on2)CN(C2CCCCC2)C1)NC1(c2ccccc2)COC1" 5 to 100 nM

I'd like to know its IC50. The molecule in question is "Cc1cc(C(C)(C)NC(=O)CC2(NC(=O)c3cc(-c4ccc(F)cc4F)on3)CN(C3CCC4(CC3)COC4)C2)ccn1" 5 to 100 nM

Recorded IC50 of COc1ccccc1C(C)(C)NC(=O)CC1(NC(=O)c2cc(-c3ccc(F)cc3F)on2)CN(C2CCC(C)(O)CC2)C1 (stereo not drawn) , please. < 5 nM

Returns the measured IC50 for the input molecule. Input: "CC(C)(NC(=O)CC1(NC(=O)c2cc(-c3ccc(F)cc3F)on2)CN([C@H]2CC[C@](C)(O)CC2)C1)c1cccc2cc[nH]c12" < 5 nM

# IC50 lookup, item "Cc1cc(C2CC2)cc(C(C)(C)NC(=O)CC2(NC(=O)c3nnc(-c4ccc(F)cc4F)s3)CN([C@H]3CC[C@](C)(O)CC3)C2)n1" 5 to 100 nM

Could you tell me which IC50 is on file for "CC(C)(NC(=O)CC1(NC(=O)c2cc(-c3ccc(F)cc3F)on2)CN([C@H]2CC[C@](C)(O)CC2)C1)c1ccnc(C#N)c1" ? 5 to 100 nM

====

Exercise: for every item that follows, state its recorded IC50.
Target: CXCR7 (Homo sapiens, UniProt P25106)
Test: CXCR7 β-arrestin recruitment assay in CHO-CXCR7 cells (ProLink/EA β-galactosidase complementation), induced by human SDF-1a
Details: assay buffer, SDF-1a at EC50 concentration

Requested read-out: IC50. Entry: "CC(C)(NC(=O)CC1(NC(=O)c2nnc(-c3ccc(F)cc3F)s2)CN(CC2CC2)C1)c1cccc(Cl)c1" 0.005 to 0.1 µM

Would you kindly share the measured IC50 for "O=C(CC1(NC(=O)c2cc(-c3ccc(F)cc3F)on2)CN(CC2CC2)C1)NC1(c2ncccn2)CC1" ? 0.005 to 0.1 µM

Look up IC50 for this compound: "CC(C)(NC(=O)CC1(NC(=O)c2cn(-c3ccc(F)cc3F)nn2)CN(C2CCCCC2)C1)c1ccccn1" 0.005 to 0.1 µM

Suppose we examine the compound "Cc1cc(C)nc(C(C)(C)NC(=O)CC2(NC(=O)c3cc(-c4ccc(F)cc4F)on3)CN(CC3(C)COC3)C2)n1" ; what IC50 value has been reported? 1 to 20 µM

If you can, please state the reported IC50 value of "CC(C)CN1CC(CC(=O)NC(C)(C)c2cncc(Cl)c2)(NC(=O)c2cc(-c3ccc(F)cc3F)on2)C1" . 0.005 to 0.1 µM

Can you look up the measured IC50 of "CC(C)(O)CN1CC(CC(=O)NC(C)(C)c2ccccn2)(NC(=O)c2cc(-c3ccc(F)cc3F)on2)C1" for me? 0.005 to 0.1 µM

Can you share its IC50? I mean this compound: "Cc1cc(C)nc(C(C)(C)NC(=O)CC2(NC(=O)c3nnc(-c4ccc(F)cc4F)s3)CN(CC(C)C)C2)n1" 0.005 to 0.1 µM

Item "CC(C)(NC(=O)CC1(NC(=O)c2cc(-c3ccc(F)cc3F)on2)CN([C@@H]2CCCCC2(C)C)C1)c1ccccn1" has what recorded IC50? < 0.005 µM

Any idea what IC50 was measured for "CC(C)(NC(=O)CC1(NC(=O)c2cc(-c3ccc(F)cc3F)on2)CN(C2CCCCC2)C1)c1ccc(Cl)nc1" ? 0.005 to 0.1 µM

# get_value(readout='IC50', item= CC(C)(NC(=O)CC1(NC(=O)c2cc(-c3ccc(F)cc3F)on2)CN(C2CC3CC3C2)C1)c1ccccn1 (centres unmarked) ) 0.005 to 0.1 µM

GET /values?readout=IC50&item= "C[C@]1(O)CC[C@@H](N2CC(CC(=O)NCc3ccccn3)(NC(=O)c3cc(-c4ccc(F)cc4F)on3)C2)CC1" 1 to 20 µM

What measured IC50 goes with "Cc1cc(C)nc(C(C)(C)NC(=O)CC2(NC(=O)c3nnc(-c4ccc(F)cc4F)s3)CN([C@H]3CC[C@@](C)(O)CC3)C2)n1" ? 0.005 to 0.1 µM

What IC50 value was documented for this compound, "C[C@H](NC(=O)CC1(NC(=O)c2cc(-c3ccc(F)cc3F)on2)CN(CC2CC2)C1)c1ccccn1" ? 1 to 20 µM

Can you look up the measured IC50 of "CC(C)(NC(=O)CC1(NC(=O)c2cc(-c3ccc(F)cc3F)on2)CN([C@H]2CC[C@@](C)(O)CC2)C1)c1ccccc1Cl" for me? < 0.005 µM
